# Test system: KMS-12-PE cells
# protocol.description: Cell proliferation assay (alamarBlue), KMS-12-PE
# Type: cell-based
# experimental.setup: Homo sapiens, 120 hours incubation, inhibition of cell proliferation
Please respond with Yes when measured IC50 is strictly beneath 0.08 µM, and with No in all other cases.

// below: answered compounds
CNC(=O)N1N=C(c2ccc(-c3ccnn3C)cc2)c2cc(OC)ccc2C[C@@H]1C = No
CNC(=O)N1N=C(c2ccc(-c3c(C)nn(C)c3C)cc2)c2cc(OC)c(OC)cc2C[C@@H]1C = Yes
CNC(=O)N1N=C(c2ccc(N3CCOCC3)cc2)c2cc(OC)c(OC)cc2CC1C (racemic) = No

In the record for "CNC(=O)N1N=C(c2ccc(N3CCC(O)CC3)cc2)c2cc(OC)c(OC)cc2C[C@@H]1C" , is IC50 less than 0.08 µM?
Yes

In the record for "CNC(=O)N1N=C(c2ccc(-n3ccc(-c4ccc(F)cc4)n3)cc2)c2cc(OC)c(OC)cc2C[C@@H]1C" , is IC50 less than 0.08 µM?
No

In the record for CNC(=O)N1N=C(c2ccc(N3CCNCC3)cc2)c2cc(OC)c(OC)cc2CC1C (racemic) , is IC50 less than 0.08 µM?
Yes

###

// reported IC50 for each item listed
# assayed.target: BRD4 (BD1) (Homo sapiens)
# Construct: with relatively long constructs also being possible, preferably amino acids 44-168
# protocol.description: Binding assay BRD4/acetylated peptide H4 (TR-FRET protein-protein interaction assay)
Note: unit nM is implicit; provide only the numeric part.

Record excerpt, results attached:
COc1cc2c(cc1OC)C(c1ccc(N3CCN(C)CC3)cc1)=NN(C(C)=O)[C@@H](C)C2 (single isomer, unassigned) [Example 245.1] = 390
CNC(=O)N1N=C(c2ccc(N3CCC(=O)CC3)cc2)c2cc(OC)c(OC)cc2CC1C (racemic) [Example 196] = 90
CNC(=O)N1N=C(c2ccc(-c3cncc(C#N)c3)cc2)c2cc(OC)c(OC)cc2CC1C (racemic) [Example 126] = 90
CNC(=O)N1N=C(c2ccc(N3CC(C)(O)C3)cc2)c2cc(OC)c(OC)cc2C[C@H]1C [Example 185.1] = 1490
CNC(=O)N1N=C(c2ccc(Cl)cc2)c2ccc(N3CCCCC3=O)cc2CC1C (racemic) [Example 231] = 3370
CNC(=O)C1CCN(c2ccc(C3=NN(C(=O)NC)[C@H](C)Cc4cc(OC)c(OC)cc43)cc2)CC1 [Example 189.2] = 17400

Just so you know, measured IC50 for CNC(=O)N1N=C(c2ccc(-c3cccnc3OC)cc2)c2cc(OC)c(OC)cc2CC1C (racemic) [Example 76] came out at 50

Just so you know, measured IC50 for CCC1Cc2cc(OC)c(OC)cc2C(c2ccc(N3CCN(C)CC3)cc2)=NN1C(=O)NC (racemic) [Example 201] came out at 1370

Just so you know, measured IC50 for CCC1Cc2cc(OC)c(OC)cc2C(c2ccc(N3CCOC3=O)cc2)=NN1C(=O)NC (racemic) [Example 228] came out at 1690

Just so you know, measured IC50 for CNC(=O)N1N=C(c2ccc(N3CCN(C)CC3=O)cc2)c2cc(OC)c(OC)cc2C[C@@H]1C [Example 43.1] came out at 170

Just so you know, measured IC50 for CNC(=O)N1N=C(c2ccc(N3C[C@@H](C)N[C@@H](C)C3)cc2)c2cc(OC)c(OC)cc2C[C@@H]1C [Example 198] came out at 5300

Just so you know, measured IC50 for CNC(=O)N1N=C(c2ccc(N3CCC(O)CC3)cc2)c2cc(OC(F)(F)F)ccc2CC1C (racemic) [Example 251] came out at 30

Just so you know, measured IC50 for CNC(=O)N1N=C(c2ccc(N3CCOC(C)C3=O)cc2)c2cc(OC)c(OC)cc2CC1C (racemic) [Example 42] came out at 200

Just so you know, measured IC50 for CNC(=O)N1N=C(c2ccc(F)c(-c3cnn(C)c3)c2)c2cc(OC)c(OC)cc2CC1C (racemic) [Example 57] came out at 90

Just so you know, measured IC50 for CNC(=O)N1N=C(c2ccc(N3CC(F)C3)cc2)c2cc(OC)c(OC)cc2CC1C (racemic) [Example 129] came out at 50
